Observed IC50 for HCV RdRp (NS5B), reported per entry below.

Ask: Entry NCCCCCCNC(=O)C(NC(=O)Nc1ccc(OCc2ccccc2)cc1)c1ccccc1 (stereo not shown) [Compound 319] : reported IC50 = ?
Reply: < 10 µM

Ask: Entry Cc1ccc(NC(=O)C(CN)NC(=O)OCC2c3ccccc3-c3ccccc32)cc1 (stereo not shown) [Compound 401] : reported IC50 = ?
Reply: > 50 µM

Ask: Entry "NCCC[C@@H](NC(=O)OCC1c2ccccc2-c2ccccc21)C(=O)Nc1ccc(C2CCCCC2)cc1" : reported IC50 = ?
Reply: < 10 µM

Ask: Entry "NCCCC[C@H](NC(=O)OCC1c2ccccc2-c2ccccc21)C(=O)Nc1ccc(CN(C(=O)c2ccco2)C2CCCCC2)cc1" : reported IC50 = ?
Reply: < 10 µM
